tested on: SNB-75 CNS; assay: NCI-60 one-dose screen, 48 h (100 = growth as untreated, 0 = no growth, -100 = all killed); details: 10 µM unless noted
The panel holds about 83,000 compounds, 20% with a hit somewhere; the sample as a whole holds those more often.
Reported growth is given for each of the following compounds.
parameter: growth (%)

[
  {
    "compound": "CCN(CC)c1ccc(/C=N/NC(=O)c2ccc(NS(C)(=O)=O)cc2)c(O)c1",
    "target-of-assay": "SNB-75 CNS",
    "value-observed": 48.1
  },
  {
    "compound": "CCOC(=O)c1ccc(NC2=CC(=O)C(C)=C(C)C2=O)cc1",
    "target-of-assay": "SNB-75 CNS",
    "value-observed": 78.7
  },
  {
    "compound": "Cc1[nH]c(C(=O)Nc2ccc(C(=O)NCC3CCNCC3)cc2OC(C)C)c(Cl)c1Cl",
    "target-of-assay": "SNB-75 CNS",
    "value-observed": 44.8
  },
  {
    "compound": "C#C[C@]1(O)CC[C@H]2[C@@H]3CC=C4c5sc(Nc6ccc(C)cn6)nc5CC[C@]4(C)[C@H]3CC[C@@]21C",
    "target-of-assay": "SNB-75 CNS",
    "value-observed": -12.2
  },
  {
    "compound": "N#Cc1c(-c2cccs2)cc(-c2cnccn2)nc1SCC(=O)N/N=C/c1cccs1",
    "target-of-assay": "SNB-75 CNS",
    "value-observed": 42.8
  },
  {
    "compound": "Cc1ccc(C(=O)Nc2ccc(CNCCN3CCOCC3)c(C(F)(F)F)c2)cc1C#Cc1cnc2cccnn12",
    "target-of-assay": "SNB-75 CNS",
    "value-observed": -18
  },
  {
    "compound": "COc1ccc(/C=N/NC(=O)CSc2nc(-c3cnccn3)cc(-c3cccs3)c2C#N)cc1",
    "target-of-assay": "SNB-75 CNS",
    "value-observed": 77.3
  },
  {
    "compound": "C(=N\\Nc1nc(N/N=C/c2ccc3c(c2)OCO3)nc(N2CCCCC2)n1)/c1ccc2c(c1)OCO2",
    "target-of-assay": "SNB-75 CNS",
    "value-observed": 113
  },
  {
    "compound": "CCc1cc(OC(=O)N2CCC(N3CCCCC3)CC2)ccc1Nc1cc(-c2ccc(-n3cccn3)cc2)[nH]n1",
    "target-of-assay": "SNB-75 CNS",
    "value-observed": 97.3
  },
  {
    "compound": "Cn1cc(-c2nnc(N)nc2-c2c[nH]c3ccc(Br)cc23)c2cc(Br)ccc21",
    "target-of-assay": "SNB-75 CNS",
    "value-observed": 82.3
  },
  {
    "compound": "CC(C)(C)OC(=O)Nc1ccc(-c2cccc(Oc3ccc4nnc(Cl)n4n3)c2)cc1",
    "target-of-assay": "SNB-75 CNS",
    "value-observed": 126
  },
  {
    "compound": "O=C1[C@@H]2Cc3c([nH]c4ccccc34)[C@H](c3ccc(Br)cc3)N2C(=O)CN1C1CCN(Cc2c(Cl)cccc2Cl)CC1",
    "target-of-assay": "SNB-75 CNS",
    "value-observed": 66.3
  },
  {
    "compound": "CC(=O)N1N=C(c2cc3ccccc3oc2=O)CC1c1cn(-c2ccccc2)nc1-c1ccc(C)cc1 (configuration not stated)",
    "target-of-assay": "SNB-75 CNS",
    "value-observed": 90.7
  },
  {
    "compound": "O=C(CCl)Nc1ccc(NC(=O)c2cc(Cl)ccc2O)c(Cl)c1",
    "target-of-assay": "SNB-75 CNS",
    "value-observed": 77.1
  },
  {
    "compound": "CCCCCC[n+]1ccc(SCC(=O)n2ccc3ccccc32)c2ccccc21",
    "target-of-assay": "SNB-75 CNS",
    "value-observed": 100
  },
  {
    "compound": "CN1CCN(c2ccc(Nc3nc(NCCCNS(=O)(=O)c4ccccc4)c4sccc4n3)cc2)CC1",
    "target-of-assay": "SNB-75 CNS",
    "value-observed": 89.3
  },
  {
    "compound": "C1=CC(c2nn3c(-c4ccccc4)nnc3s2)=Cc2ccccc2O1",
    "target-of-assay": "SNB-75 CNS",
    "value-observed": 78.3
  },
  {
    "compound": "CNc1sc(S(=O)(=O)NC)nc1S(=O)(=O)c1ccc(C)cc1",
    "target-of-assay": "SNB-75 CNS",
    "value-observed": 88.3
  },
  {
    "compound": "O=C(CCCCCCN1CC(=O)N2[C@@H](C3CC3)c3[nH]c4ccccc4c3C[C@H]2C1=O)NO",
    "target-of-assay": "SNB-75 CNS",
    "value-observed": 58.7
  },
  {
    "compound": "CC(=O)N(O)CCCCCNC(=O)CCC(=O)N(O)CCCCCNC(=O)CCC(=O)N(O)CCCCCN(CCCCCCCCCC[P+](c1ccccc1)(c1ccccc1)c1ccccc1)CCCCCCCCCC[P+](c1ccccc1)(c1ccccc1)c1ccccc1",
    "target-of-assay": "SNB-75 CNS",
    "value-observed": -11
  },
  {
    "compound": "O=C(CCCCCCNC(=O)C(O)(O)C(F)(F)F)Nc1ccc(Cl)cc1",
    "target-of-assay": "SNB-75 CNS",
    "value-observed": 42.5
  },
  {
    "compound": "CCOC(=O)c1c(NC(=O)c2ccc(C(F)(F)F)cc2)sc2c3c(ccc12)OCN(C)C3",
    "target-of-assay": "SNB-75 CNS",
    "value-observed": 69.7
  }
]
